system: RXRa DBDmut IVT, anti-RXR (DBD mutation: RXRa K156A/R161A, NR concentration 90 nM); assay: PBM binding z-score (relative to random genomic background probes); higher = stronger binding; sequences stand for … in GC…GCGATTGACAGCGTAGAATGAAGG
PBM binding z-score by entry:
Please respond with just the number, no unit label.

CGTCAAAGTCCAACTAAGGTAACGTAAAGCACGC	1.14
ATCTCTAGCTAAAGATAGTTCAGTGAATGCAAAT	-0.2
CAAACTAGGTCACCGGAAGGTTAAAGTCCGCATG	2.08
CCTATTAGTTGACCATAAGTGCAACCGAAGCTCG	1.18
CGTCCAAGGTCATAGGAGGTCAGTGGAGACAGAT	4.09

We now examine a further sequence.
Q: Requested read-out: PBM binding z-score. Entry: `ATACCAAGATGATCGTGAGGTCGTTGATACTAAC`
Ans: 0.473

====

system: PPARg DBDmut IVT, anti-PPARg (DBD mutation: PPARg1 K132A/R137A, NR concentration 270 nM); experiment: PBM binding z-score (relative to random genomic background probes); higher = stronger binding; sequences stand for … in GC…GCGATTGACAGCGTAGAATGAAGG
Recorded PBM binding z-score determines the label; the label ranges are category 1 = under -0.2, category 2 = from -0.2 up to 0.4, category 3 = 0.4 and over

# count of solved cases: 8
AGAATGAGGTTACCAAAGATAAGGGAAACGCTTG	category 3
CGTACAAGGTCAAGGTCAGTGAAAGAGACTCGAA	category 3
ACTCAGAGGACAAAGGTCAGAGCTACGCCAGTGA	category 1
CAAGCTAGGTCACAGAGGTCAAAGTCCGTGCGTA	category 2
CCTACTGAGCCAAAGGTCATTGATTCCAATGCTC	category 2
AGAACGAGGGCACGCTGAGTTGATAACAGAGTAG	category 2
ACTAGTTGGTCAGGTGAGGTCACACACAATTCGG	category 3
CCTAGCAGGCCAATATGGGTCACTCAAGGCTTGA	category 1

Q: Bin? `CCTAGCAGGCCAATCTTGGTCACTCAAGGCTTGA`
Ans: category 1

Q: Bin? `AGAACGAGGGCAATGAGATGATAGCACGGGTGGC`
Ans: category 3

====

system: VDR:RXRa (NR concentration 270 nM, RXRa partner concentration 90 nM); test: PBM binding z-score (relative to random genomic background probes); higher = stronger binding; sequences stand for … in GC…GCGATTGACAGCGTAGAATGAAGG
Would you mind labelling by PBM binding z-score? At or over 1 is rule met, under is rule not met.

# count of solved cases: 8
GCAGACAGGTGAAACGGAGGTAACTCAGGGTGGC	rule not met
CTAGAAAGGTCGGTTGAGGTGAGTATACGGATAA	rule met
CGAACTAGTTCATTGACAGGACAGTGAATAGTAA	rule met
ACTAGTTGGTTAGCTGAGGTCACACACAATTCGG	rule met
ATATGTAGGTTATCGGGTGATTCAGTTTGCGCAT	rule met
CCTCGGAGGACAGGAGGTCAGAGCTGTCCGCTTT	rule met
CCGACTGGGGCAAGGTTACGATAACGCACAGCCA	rule not met
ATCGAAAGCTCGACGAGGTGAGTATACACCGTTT	rule not met

Q: Threshold query (PBM binding z-score >= 1) on `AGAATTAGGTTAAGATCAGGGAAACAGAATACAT`
Ans: rule not met

Q: Threshold query (PBM binding z-score >= 1) on `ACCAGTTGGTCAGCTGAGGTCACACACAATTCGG`
Ans: rule met

Q: Threshold query (PBM binding z-score >= 1) on `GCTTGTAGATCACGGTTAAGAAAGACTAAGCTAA`
Ans: rule not met

Q: Threshold query (PBM binding z-score >= 1) on `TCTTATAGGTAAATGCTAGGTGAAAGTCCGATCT`
Ans: rule not met

Q: Threshold query (PBM binding z-score >= 1) on `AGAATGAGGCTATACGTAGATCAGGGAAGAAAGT`
Ans: rule not met

Q: Threshold query (PBM binding z-score >= 1) on `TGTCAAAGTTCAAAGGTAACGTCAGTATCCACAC`
Ans: rule met

Q: Threshold query (PBM binding z-score >= 1) on `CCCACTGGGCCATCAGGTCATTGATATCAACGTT`
Ans: rule met

====

PBM binding z-score by entry:
tested on: PPARg:RXRa IVT, anti-PPARg (NR concentration 270 nM, RXRa partner concentration 90 nM); assay: PBM binding z-score (relative to random genomic background probes); higher = stronger binding; sequences stand for … in GC…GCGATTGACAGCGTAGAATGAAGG

Use these answered entries as a reference point.
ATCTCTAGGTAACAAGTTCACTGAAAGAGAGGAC	3.15
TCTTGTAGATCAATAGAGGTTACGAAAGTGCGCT	1.63
CGTCCAAAGTCAGAGAGGTCAGTGAATGCCGAGT	0.644
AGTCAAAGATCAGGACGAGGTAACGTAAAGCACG	0.122
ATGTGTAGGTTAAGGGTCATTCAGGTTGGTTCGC	5.47

Q: Requested read-out: PBM binding z-score. Entry: `CCTACTGGGCCATCCGGTCATTGATATCAACGTT`
Ans: 4.21

Q: Requested read-out: PBM binding z-score. Entry: `CCGGCTGGGGCAGAAAGGTTACCATACCATCCGG`
Ans: -0.138

====

tested on: PPARg:RXRa 90nM:30nM, anti-RXR (NR concentration 90 nM, RXRa partner concentration 30 nM); test: PBM binding z-score (relative to random genomic background probes); higher = stronger binding; sequences stand for … in GC…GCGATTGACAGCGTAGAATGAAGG
Would you mind labelling by PBM binding z-score? At or over 2 is met, under is not met.

# count of solved cases: 5
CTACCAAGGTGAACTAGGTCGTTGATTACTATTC	not met
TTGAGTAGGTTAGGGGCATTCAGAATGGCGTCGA	met
CCGACTGGGGCAGACAGGTTACCATACCATCCGG	not met
CGGCCAAGGTCAGAGAGGTCAGTGAATGCCGAGT	met
CGTCCAAGGTCAAAGGTCCGTGAAGAGATGACGG	met

Q: Threshold query (PBM binding z-score >= 2) on `ACTAGCACGCCAAGGGTCACTCAAGATTAGTCCG`
Ans: met

====

system: RARg homodimer (NR concentration 270 nM); test: PBM binding z-score (relative to random genomic background probes); higher = stronger binding; sequences stand for … in GC…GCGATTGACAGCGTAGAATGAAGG
PBM binding z-score by entry:
Please respond with just the number, no unit label.

CTCGAAAGGTCGGTTGACGTGAGTATACGGATAA	2.8

Q: Requested read-out: PBM binding z-score. Entry: `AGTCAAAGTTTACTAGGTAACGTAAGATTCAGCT`
Ans: 1.46

Q: Requested read-out: PBM binding z-score. Entry: `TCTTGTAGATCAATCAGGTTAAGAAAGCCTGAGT`
Ans: -0.074

====

test system: RARg:RXRa (NR concentration 270 nM, RXRa partner concentration 90 nM); assay: PBM binding z-score (relative to random genomic background probes); higher = stronger binding; sequences stand for … in GC…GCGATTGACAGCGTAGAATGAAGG
Would you mind labelling by PBM binding z-score? At or over 1 is YES, under is NO.

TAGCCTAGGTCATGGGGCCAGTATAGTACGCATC	YES

Q: Threshold query (PBM binding z-score >= 1) on `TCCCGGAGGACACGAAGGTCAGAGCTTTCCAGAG`
Ans: YES

Q: Threshold query (PBM binding z-score >= 1) on `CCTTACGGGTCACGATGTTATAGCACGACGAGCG`
Ans: YES

Q: Threshold query (PBM binding z-score >= 1) on `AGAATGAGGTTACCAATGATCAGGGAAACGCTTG`
Ans: YES

Q: Threshold query (PBM binding z-score >= 1) on `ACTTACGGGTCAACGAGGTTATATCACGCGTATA`
Ans: YES

Q: Threshold query (PBM binding z-score >= 1) on `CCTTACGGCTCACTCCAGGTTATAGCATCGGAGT`
Ans: NO

====

system: LXRb:RXRa (NR concentration 270 nM, RXRa partner concentration 90 nM); experiment: PBM binding z-score (relative to random genomic background probes); higher = stronger binding; sequences stand for … in GC…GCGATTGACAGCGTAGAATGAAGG
Would you mind labelling by PBM binding z-score? At or over 2 is Fulfilled, under is Not fulfilled.

# count of solved cases: 4
GCTATTAGATGAAAGGGCAACCGAATGATTCTCG	Not fulfilled
TCAGACAGGTGAACGTAACTCAGGTACGCAGTCG	Not fulfilled
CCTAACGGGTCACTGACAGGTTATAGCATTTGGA	Fulfilled
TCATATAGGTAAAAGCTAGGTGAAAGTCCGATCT	Not fulfilled

Q: Threshold query (PBM binding z-score >= 2) on `GTTATTAGTTGAAAGGGCAACCGAATGATTCTCG`
Ans: Not fulfilled

Q: Threshold query (PBM binding z-score >= 2) on `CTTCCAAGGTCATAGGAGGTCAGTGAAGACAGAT`
Ans: Fulfilled

Q: Threshold query (PBM binding z-score >= 2) on `CCGAGTACGTTATGGGGCATTCAGGCAACGGTGA`
Ans: Not fulfilled

Q: Threshold query (PBM binding z-score >= 2) on `CCTGCTAGGTCATGGACAGCTAATCTACAGTATG`
Ans: Not fulfilled

Q: Threshold query (PBM binding z-score >= 2) on `TCTCTTAGTTGAAGGGCAACCGACGAGTCCGTTT`
Ans: Not fulfilled

Q: Threshold query (PBM binding z-score >= 2) on `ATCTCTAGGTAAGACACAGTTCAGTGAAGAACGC`
Ans: Not fulfilled

Q: Threshold query (PBM binding z-score >= 2) on `CCTTACGGGTCACTCCAGGTTAAAGCATCGGAGT`
Ans: Fulfilled

Q: Threshold query (PBM binding z-score >= 2) on `CCTACTGGGCCATCAGGTCATTTATATCAACGTT`
Ans: Not fulfilled
